From: patent US20250250357A1

subject_of_test: T1, human MSLN-R1-his protein (human, UniProt Q13421 296-390)
T1 construct: Made in HEK293E cells, purified on nickel column; also called hMSLN-R1-his; human MSLN-R1 protein; not shown: His tag
T1 chain: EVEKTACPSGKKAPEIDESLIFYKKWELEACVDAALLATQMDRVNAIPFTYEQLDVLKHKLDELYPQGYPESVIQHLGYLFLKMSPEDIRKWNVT
run_description: ELISA, coated antigen, antibody 200 nM
Consider the following binders and their measured OD450 readings.

Known results for binders:
1) S009-F7.33.24 chimeric antibody (antibody, human IgG1, kappa, V domains shown, Human-murine chimeric antibody, human IgG1/kappa constant regions) VH: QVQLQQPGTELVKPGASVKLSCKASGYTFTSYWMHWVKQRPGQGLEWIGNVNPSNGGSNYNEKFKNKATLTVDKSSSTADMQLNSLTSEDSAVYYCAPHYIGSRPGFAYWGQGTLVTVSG VL: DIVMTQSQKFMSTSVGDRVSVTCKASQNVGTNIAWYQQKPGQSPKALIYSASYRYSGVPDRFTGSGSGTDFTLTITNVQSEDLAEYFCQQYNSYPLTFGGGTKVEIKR | 0.15
2) S009-F7.18.10 chimeric antibody (antibody, human IgG1, kappa, V domains shown, Human-murine chimeric antibody, human IgG1/kappa constant regions) VH: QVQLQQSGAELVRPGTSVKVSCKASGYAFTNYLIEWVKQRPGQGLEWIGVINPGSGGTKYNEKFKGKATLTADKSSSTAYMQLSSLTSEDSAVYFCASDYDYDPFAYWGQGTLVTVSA VL: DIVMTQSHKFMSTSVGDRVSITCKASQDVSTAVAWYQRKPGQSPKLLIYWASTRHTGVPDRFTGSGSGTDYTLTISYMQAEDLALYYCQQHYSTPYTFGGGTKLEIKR | 2.77

For the next question, use this binder.
Endpoint output: OD450 of S009-F7.21.16 chimeric antibody (antibody, human IgG1, kappa, V domains shown, Human-murine chimeric antibody, human IgG1/kappa constant regions) VH: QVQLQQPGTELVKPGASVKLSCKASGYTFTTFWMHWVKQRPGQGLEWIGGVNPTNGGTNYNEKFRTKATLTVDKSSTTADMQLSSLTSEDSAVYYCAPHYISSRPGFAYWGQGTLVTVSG VL: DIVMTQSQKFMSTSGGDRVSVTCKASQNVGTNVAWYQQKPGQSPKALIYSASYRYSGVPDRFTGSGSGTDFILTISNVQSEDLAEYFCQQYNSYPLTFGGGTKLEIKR . Value?
0.17
